System tested: PCP recognition sites (PCP receptor), rat whole brain membranes
Test description: [^3 H]TCP Radioreceptor Assay (internal screen)
Test settings: [^3 H]TCP approx. 1 nM, room temperature 25 min; mean of at least two separate determinations
pKi: −log10 of the molar value.
I would appreciate it if you labelled entries Fulfilled when pKi is 6 or higher, otherwise Not fulfilled.

INSERT INTO results (compound, system_tested, class_assignment) VALUES
  ('CC(C)C1(C(C)C)CC2c3ccccc3C1c1cccc[n+]12 (centres unmarked)', 'PCP recognition sites (PCP receptor), rat whole brain membranes', 'Not fulfilled'),
  ('[O-][Cl+3]([O-])([O-])[O-].c1ccc2c(c1)C1CC(C3CC3)(C3CC3)C2c2cccc[n+]21 (centres unmarked)', 'PCP recognition sites (PCP receptor), rat whole brain membranes', 'Fulfilled'),
  ('c1ccc2c(c1)C1CC3(C4CC5CC(C4)CC3C5)C2c2cccc[n+]21 (centres unmarked)', 'PCP recognition sites (PCP receptor), rat whole brain membranes', 'Not fulfilled'),
  ('C=C(C)C1(C)CC2c3ccccc3C1c1cccc[n+]12 (centres unmarked) [Example 3]', 'PCP recognition sites (PCP receptor), rat whole brain membranes', 'Fulfilled');

###

Items are presented alongside their recorded Ki.
System tested: PCP recognition sites (PCP receptor), rat whole brain membranes
Test description: [^3 H]TCP Radioreceptor Assay (internal screen)
Test settings: [^3 H]TCP approx. 1 nM, room temperature 25 min; mean of at least two separate determinations
Endpoint label: Ki

INSERT INTO assay_data (compound, endpoint_label, value_observed) VALUES
  ('C=C(C)C1(COC)CC2c3ccccc3C1c1cccc[n+]12.[O-][Cl+3]([O-])([O-])[O-] (single isomer, unassigned)', 'Ki', '0.313 µM'),
  ('C=C(C)C1(C)CC2c3ccccc3C1c1cccc[n+]12 (centres unmarked) [Example 5]', 'Ki', '0.0652 µM'),
  ('OCC1(CO)CC2c3ccccc3C1c1cccc[n+]12 (centres unmarked)', 'Ki', '1.95 µM'),
  ('CC(C)=CC1C2c3ccccc3C([n+]3ccccc32)C1(C)C (centres unmarked)', 'Ki', '3.54 µM'),
  ('c1ccc2c(c1)C1CC3(CCC3)C2c2cccc[n+]21 (centres unmarked)', 'Ki', '3.11 µM'),
  ('C=C(C)C1(C)CC2c3ccccc3C1c1cccc[n+]12.[O-][Cl+3]([O-])([O-])[O-] (centres unmarked)', 'Ki', '0.0457 µM'),
  ('C=C(C)C1(C)CC2(C)c3ccccc3C1c1cccc[n+]12.[O-][Cl+3]([O-])([O-])[O-] (centres unmarked)', 'Ki', '0.069 µM'),
  ('C=C(C)C1(C)CC2c3ccccc3C1c1cccc[n+]12 (single isomer, unassigned) [Example 2]', 'Ki', '0.208 µM');
